- EXPERIMENTAL_PROTOCOL: Inhibition of HCV BK NS5B polymerase
- Parameters: species or system Hepatitis C virus (isolate BK)
# reported IC50; entries follow
MEASURE_NAME: IC50 (nM)

INSERT INTO assay_data (molecule, value) VALUES
  ('O=C(O)CC1(CC2CC2)OCCc2c1[nH]c1c(Cl)ccc(Cl)c21 (stereo unspecified)', 1900),
  ('CCCC1(CC(=O)O)OCCc2c1[nH]c1c(Cl)ccc(Cl)c21 (stereo unspecified)', 370),
  ('CC(C#N)C1(CC(=O)O)OCCc2c1[nH]c1c(Cl)ccc(Cl)c21 (stereo unspecified)', 300),
  ('CCC(C)C1(CC(=O)O)OCCc2c1[nH]c1c(C)ccc(C#N)c21 (racemic)', 3200),
  ('CCOCC1(CC(=O)O)OCCc2c1[nH]c1c(Cl)ccc(Cl)c21 (stereo unspecified)', 26000),
  ('CC/C=C/C1(CC(=O)O)OCCc2c1[nH]c1c(Cl)ccc(Cl)c21 (stereo unspecified)', 1700);

====

- EXPERIMENTAL_PROTOCOL: Ratio of apparent permeability from basolateral to apical side over apical to basolateral side in human Caco-2 cells
MEASURE_NAME: efflux ratio

INSERT INTO measurements (entry_smiles, value) VALUES
  ('CCC[C@]1(CC(=O)O)OCCc2c1[nH]c1c(C)ccc(C#N)c21', 0.09),
  ('CCC[C@]1(C(=O)O)OCCc2c1[nH]c1c(C)ccc(C#N)c21', 7.5);

Where do these numbers come from? They come from ChEMBL document CHEMBL1157893.
